System: MS2 coat protein
PROTOCOL DETAILS: apparent KD of MS2 coat protein; designed switch direction (-1 OFF switch, 1 ON switch): 1; higher = weaker reporter binding
SETUP CONDITIONS: Eterna round: R95; input ligand: none
Label true (1) when apparent KD of MS2 coat protein >= 70 nM; otherwise false (0).

SEQUENCE CHAIN	TESTED TARGET	LABEL
CAGCGCUGUCGAGAGGAUAUGCGGUGAUGGACAUGAGGAUCACCCAUGUUAGCGAUAGCAUUACGGUAGAAGGCUCUACAGCUGC [Soteed no mod] (puzzle: Same State 2)	MS2 coat protein	false (0)
CGGCGCUGUCGAGAGGAUAUGCGGUGAUGGACAUGAGGAUCACCCAUGUUAGCGAUAGCAUUACGGUAGAAGGCUCUACAGUUGC [Soteed Omei mod 8] (puzzle: Same State 2)	MS2 coat protein	false (0)
CUGCUACAUGAGGAUCACCCAUGUUGGAGUGAUGCAGGAUAUGUGUGACCAGAAGAUGAAACAGAAGGGCAAAGAA [JR_SS!_Sub004] (puzzle: Same State 1)	MS2 coat protein	true (1)
ACAAGCUUUUUAGGAGAGAAAGGUGGGAAACAUGAGGAUCACCCAUGUAUGGUAGUGAAUAGUGGAACUCGUCUUAU [JR_SHM208A_Sub081] (puzzle: Sensor for hsa-mir-208a)	MS2 coat protein	true (1)
GAGGAUGAUUUACAGGAUAUAUAGAAGAUGACAUGAGGAUCACCCAUGUAAGAGAAAGGAGGGAGAUAGAAGGGUAAGGGAUGUG [JR_SS2_Sub40] (puzzle: Same State 2)	MS2 coat protein	false (0)

Evaluate AGAGAAGAAGCUGAGGAUAUCGUAAGGAGGACAUGAGGAUCACCCAUGUGUGUGGAAUUGGAGGACGAGAAGGCAGAGGAGUGGG [JR_SS2_Sub056] (puzzle: Same State 2) : apparent KD of MS2 coat protein at minimum 70 nM?
false (0)

Does apparent KD of MS2 coat protein meet or surpass 70 nM for AUUAAACAUGAGGAUCACCCAUGUCAACAAAGUCGAGGAUAUGGGCAAAUAAAAUAAGAACCAGAAGGCGAAUAAU [salish99_ss1_r3_048] (puzzle: Same State 1) ?
true (1)

Determine whether this sequence has apparent KD of MS2 coat protein no lower than 70 nM: AUAAGUUUGAUGCUCGUCUCUUCGUACAGACAUGAGGAUCACCCAUGUAGUCGGGAAGUAGCCCGGCCAGUAUGACC [Usraisqu] (puzzle: Sensor for hsa-mir-208a)
true (1)

Reported apparent KD of MS2 coat protein reaches at least 70 nM for AGAAGACAUGAGGAUCACCCAUGUCCCUCAUGCGUAGGAUAUAUAAGAAGAAAGAAAAGGAUAGAAGGACGAAAAG [Default title] (puzzle: Same State 1) ?
true (1)

Threshold query (apparent KD of MS2 coat protein >= 70 nM) on GGAGCCGGCACCGAGGAUAUUCAUAUUAAAACAUGAGGAUCACCCAUGUAGCUCGAAAGAGCUUGGGAGAAGGCGGAUCGGCUCG [Xeonanis - 29] (puzzle: Same State 2)
true (1)

// inclusive: apparent KD of MS2 coat protein at least 70 nM? input: UGCGGAUAACAGUAGGAUAUGGUCAACGCCACAUGAGGAUCACCCAUGUCGUACCGGCACCUGGACUAGAAGGACUGCCUCCCGC [Esleberi] (puzzle: Same State 2)
false (0)

###

Test system: MS2 coat protein
PROTOCOL DETAILS: apparent KD of MS2 coat protein; higher = weaker reporter binding
SETUP CONDITIONS: Eterna round: R107; input ligand: tryptophan 2.4 mM
Label rule, in plain words: apparent KD of MS2 coat protein of 0.1 µM and up is Satisfied, under 0.1 µM is Not satisfied.

The following sequences have reported results that may help.
SEQUENCE CHAIN	LABEL
ACGUCACGUUUACUCGUGGUUUCGUUCGAUACCAGUAGCGAGAGUUACCCUUGGCAGCGACAUGAGGAUCACCCAUGUACGAAGA [XTheo A #24]	Not satisfied
UUCGCUGAGGGAAGGAGCGUGAAGACAUGAGGAUCACCCAUGUAGAGGCGCCGAAGGCGUUCGCAGGUAGGUCGCCCUCAGUGAG [#1 Same State - Arginine B Attempt #23 (HarryS)]	Not satisfied
ACAAUAUUGAGUUUGUCUCAAGUUUCAGAAGGAGCGUGAGGAAUCACAGGUAGGUCGCUGAUAACAUGAGGAUCACCCAUGUAUU [JR_SSArginiA_Sub005]	Not satisfied
CGGGUUCGGGCGGCCGCCACUUUGAUUGGGUGUGACAUGAGGAUCACCCAUGUUGUGGGUGAUCGGAGGACCGGGUUUGGGCUUG [Fidorka]	Satisfied
UAGCGAUAAUCUGAUACCAGACGUGUGCUCUCCUCAGACAUGAGGAUCACCCAUGUAUGCGUCCCUUGGCAGCAGAGUGAGGAGA [Theo B Ex t5]	Not satisfied
ACAUGAGGGCGAAGGAGCGCGUACAUGAGGAUCACCCAUGUCUAUAUCCGUCCGCGUGUAACGCAGGUAGGUCGCGCUGUUAAUU [#14 Exclusion - Arginine B]	Not satisfied
ACAUGAGGAUCACCCAUGUCAGGGCACGAUACCAGCUGAUCCGAUGGCCCUUGGCAGCGUGACGUGUGGUCAUGAGGAUCACCCG [kvfmullin]	Satisfied
ACGACGCAUAGUGAUACCAGUAGAACAUGAGGAUCACCCAUGUCUGUGACGCACAAACUCUGCCCUUGGCAGCACUAUGCGUCAG [SSTheo B #7]	Not satisfied

Record AUAUAUAUGCGAAGGAGCGGGAAAUAUAUAUAUAUAAUCCUAACAUGAGGAUCACCCAUGUCCCAGGUAGGUCGCGCAUAUAUAU [12.A] ; criterion: apparent KD of MS2 coat protein no lower than 0.1 µM. Met?
Not satisfied

Kindly determine if apparent KD of MS2 coat protein recorded for UUCUACAUGAGGAUCACCCAUGUGGGUGAUACCAGCACUUUUUGGUGCCCUUGGCAGCACAUGAGAAUACCGUACGAUCGGCGAU [Arainbi] is above or exactly 0.1 µM.
Satisfied

Is the recorded value of apparent KD of MS2 coat protein equal to or greater than 0.1 µM for this sequence? CUCUCAUGAACAUGAGGAUCACCCAUGUAACGAGGACCGGUACGGCCGCCACUCGAACGUGGAUACCAAUCGAGUGGGUGAGAGA [Tryp A Ex t5]
Not satisfied

###

Test system: K4 kissing-loop RNA reporter;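 note: bound reporter read as fluorescence of individual clusters on recovered sequencing chips by microscopy, with normalized cluster intensities fitted with a binding model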
PROTOCOL DETAILS: apparent KD of K4 kissing-loop reporter; higher = weaker reporter binding
SETUP CONDITIONS: Eterna round: R107; input ligand: FMN 200 uM
Could you label it yes if measured apparent KD of K4 kissing-loop reporter is 200 nM or higher, and no otherwise?

Example entries begin here.
SEQUENCE CHAIN	TESTED TARGET	LABEL
UGACUGGACUGAAGGAGCGCUGAACUCCUAGUGAUGUUAGGAAAACGAGACAAAGUCUCGAAGCAGGUAGGUCGCAGUCUAGUCU	K4 kissing-loop RNA reporter	no
AUCGUUGUCUGAGGAUAUCGUUUAACUGUAGUGAUGUUACAGAAAAUUCAUAUUAUAUUUUCUAUUCGAGAAGGCAGACUACGUA [JR_ExcFMNB_Sub016]	K4 kissing-loop RNA reporter	no
AAAAUAAUCCAGUGAUGUUGGUAUGCAGAUACCAGCGACGAAAGUCGCCCUUGGCAGCUGUGGACGUACAAAAUAAGUACGUCCU	K4 kissing-loop RNA reporter	yes
AAGCAGUCACUCAAAGCCAUCGAAGAUGGACGAGGACCGGUACGGCCGCCACUCGGAGUGAUGUUCCGAAGACUGCAAAAUAAAA	K4 kissing-loop RNA reporter	yes
UAGAUGUUGUAAGAUAUUGAUAGUCGGGAAGGAGCGCUCACAAUAGCAGGUAGGUCGCCCGACAGUGUUAGGAGUGAUGUUCCUU [7.)]	K4 kissing-loop RNA reporter	no
UGCUUUAUCAGAAGGAGCGCGUUGGUCAUAAUAAUAAUCAGUGAUGUUGAUAUAUGAGGAUUGCAGGUAGGUCGCUGAUAUAGCU [KL-XARG-B1]	K4 kissing-loop RNA reporter	yes

Answer whether apparent KD of K4 kissing-loop reporter of AUUUAGACGAGUGAUGUUCGUGUUAUUACAGAGGAUAUGCGUAAUUGCAGAAGGCUGUAUUUAUAUAUGUUAUGUAGUUUUAAAA [whbob_Ex_FMNA__2th184] is greater than or equal to 200 nM.
no

Please tell me: is the sequence CUGUUUUAGUCGGCCGCCACUGCAAGUGAUGUUUGGAGUAUUAUGCCGUUUCUGUCCAUUGAACCCAGGACCGGGACCGGAUCGU [theeternabot_exclusion_KL_Trp_B_8] at or over 200 nM in terms of apparent KD of K4 kissing-loop reporter?
yes

Evaluate AACAGCAAUGCGGCCGCCACUUCGAGGUCAGUGAUGUUGACGGAAUUAAAUAAAGAUCCCAAGAGGAGGACCGGGCAGUGCUGUU [whbob_SS_Tryp_B_t25] : apparent KD of K4 kissing-loop reporter at minimum 200 nM?
yes

Determine whether measured apparent KD of K4 kissing-loop reporter meets or exceeds 200 nM for AUUCAGAUCUGAAGGAGCGCGUUGACAUAUUGCUUCAUUGAGCAGUGAUGUUGCUCAGUAACGCAGGUAGGUCGCAGAUCUGGCC [Arg B Ex t7a]
no

Does the reported apparent KD of K4 kissing-loop reporter for CGCUCGAAAAUUAAGUGAGUGAUGUUCACUCGAGGACCGGUACGGCCGCCACUCGUCUUACGUUGAGACACUGCUCGUACUCAUA [theeternabot_exclusion_KL_Trp_A_38] fall at or above the 200 nM mark?
yes

Identify whether the reported apparent KD of K4 kissing-loop reporter of the following sequence is 200 nM or greater: AGGUCCGAGCCCGGAAGGGCUCGGACCUGUUAGGAUAUGACGUUAUUCAGAAGGGAUGGGUGGAGUGAUGUUCCACCCGAGAGGG [#2 Same State - FMN A Attempt #17 (HarryS)]
no
